Assay name: PSAC antagonists in infected red cells, primary screen, cell-based, P. falciparum Indochina, OD700, 2 h (AID 1155);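 further: lysis reports solute entry through the parasite surface anion channel PSAC; channel blockers reduce lysis of infected cells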
Assay setup: P. falciparum Indochina infected erythrocytes, osmotic lysis OD700, called active from +8 up or from −8 down
The source made the active and inactive calls.
A correct response names exactly one class from true = active, false = inactive

Example entries begin here.
molecule="CC(C)C[C@H]1NC(=O)[C@@H](C)NC(=O)[C@@]23C(=O)N[C@@H](Cc4ccccc4)C2[C@H](C)[C@@]2(C)O[C@H]2C3/C=C/C/C=C\\CNC1=O (stereo not given in full)" assigned_label=false
molecule=O=C1c2ccccc2[C@](Cc2ccccc2I)(C(=O)O)[C@H](c2ccc(CO)cc2)N1Cc1ccccc1 assigned_label=false
molecule=[N-]=[N+]=NCc1ccccc1C[C@]1(C(=O)O)COC(c2ccc(OCCCO)cc2)=N1 assigned_label=false
molecule=Cc1c(-c2ccc(-c3ccc(Cl)c(Cl)c3)o2)nc(-c2ccccc2)c2c1CO[Si]2(C(C)C)C(C)C assigned_label=false

Query string: // param item: "COCCCNC(=O)[C@@]1(Sc2ccc(C)cc2)CC(=O)N(C2CCCCC2)[C@@H]1c1ccc(CO)cc1I" ; yields the recorded call
Result string: false

Query string: // param item: "COc1ccc([Si](C)(C)[C@@H]2[C@@H](CC(=O)N(CCO)Cc3ccccc3)O[C@]3(C(=O)N(Cc4ccc(N5CCC5=O)cc4)c4ccccc43)[C@H]2C)cc1" ; yields the recorded call
Result string: false

Query string: // param item: N#Cc1ccc(C(O)C2C=CC3C(=O)NC(=O)C3N2Nc2ccccn2)cc1 (stereo not given) ; yields the recorded call
Result string: false

Query string: // param item: "C=C(CCCC)C(=O)CC[C@H](OC(C)=O)c1ccccc1OCCO" ; yields the recorded call
Result string: false

Query string: // param item: "COc1ccc(CCNC(=O)[C@@]2(Sc3ccc(C)cc3)CC(=O)N(Cc3cc(C(F)(F)F)cc(C(F)(F)F)c3)[C@@H]2c2ccc(CO)cc2)cc1" ; yields the recorded call
Result string: false

Query string: // param item: COC(=O)C1(CC(C)C)C=C2C(=C(C(C)C)C(=O)C2C)CN1 (stereo not given) ; yields the recorded call
Result string: false

Query string: // param item: "CC(C)C(=C=CC[C@@H](O)c1ccc(OCCO)cc1)CCO" ; yields the recorded call
Result string: false

Query string: // param item: "CC(C)C[C@@H]1NC(=O)[C@@H]2C[C@H](C(=O)NCCCC[N+](C)(C)C)[C@H](c3ccc(O)cc3)N2C1=O" ; yields the recorded call
Result string: false

###

Assay name: osmotic lysis modulators in infected erythrocytes, primary screen, PSAC antagonist project, cell-based, P. falciparum Indochina, OD700, 3 h (AID 1156)
Assay setup: higher = more signal, called active from +8 up or from −8 down
Measurement name: z-score
Lab note: jot down the number only; don't add units.

molecule="COc1cc2c(cc1O)C(c1ccc(CN3CCCC3)cc1)N(Cc1ccc([N+](=O)[O-])o1)CC2 (stereo not drawn)" number=-0.176
molecule="C=CCC(OC(C)=O)[C@@H]1[C@@H](N(Cc2ccc(-c3ccccc3)cc2)C(=O)c2cccc3ccccc23)c2cc(OCCCO)ccc2N1C(=O)c1ccc2ccccc2c1 (stereo partly drawn)" number=-0.0836

The record that follows has no z-score shown yet.
z-score measured on C=CCC(OC(C)=O)[C@@H]1[C@@H](N(Cc2cc3ccccc3o2)C(=O)c2ccc(-c3ccccc3)cc2)c2cc(OCCCO)ccc2N1C(=O)c1ccc2ccccc2n1 (stereo partly drawn) = -0.44

###

Target of assay: Luciferin 4-monooxygenase (Photinus pyralis)
Assay name: firefly luciferase enzyme inhibitors, primary screen, biochemical, luminescence, purified enzyme, 2006 set (AID 1141);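 further: cell-free assay with purified firefly luciferase at 100 ng per well in PBS; test concentration not given here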
Assay setup: SteadyGlo luminescence, 30 min, higher = more signal, called active from +8 up or from −8 down
Measurement name: z-score
Lab note: jot down the number only; don't add units.

z-score measured on "COc1ccc([Si](C)(C)[C@H]2[C@H](CCO)O[C@@]3(C(=O)N(Cc4ccccc4)c4ccc(N(C=O)c5ccccc5)cc43)[C@@H]2C)cc1" = 0.457

z-score measured on "COCCOC(=O)N1C(=O)[C@@]2(c3ccccc31)[C@H](C(=O)N1CCCCCCC1)[C@H]1C(=O)O[C@H](c3ccccc3)[C@H](c3ccccc3)N1[C@@H]2c1ccc(O)cc1" = 0.047

z-score measured on "COCCCNC(=O)[C@@H]1c2ccccc2C(=O)N(C2CCCCC2)[C@H]1c1ccc(CO)cc1" = -0.0838

z-score measured on "Cc1ccc(S[C@]2(C(=O)NCCN3CCOCC3)CC(=O)N(C3CCCCC3)[C@@H]2c2ccc(CO)cc2I)cc1" = 0.827

z-score measured on CCCCC(O)C1C=CC2C(=O)NC(=O)C2N1Nc1ccc(Cl)cc1Cl (stereo not drawn) = -1.31

z-score measured on CC(=O)c1ccc(C(O)C2C=CC3C(=O)N(C)C(=O)C3N2NC(=O)OC(C)(C)C)cc1 (stereo not drawn) = -0.068

z-score measured on CC(C)c1ccc(NN2C(C(O)C(C)C)C=CC3C(=O)N(c4ccccc4)C(=O)C32)cc1 (stereo not drawn) = -1.73

z-score measured on CCOC(=O)C1=CCC(c2cc3ccccc3[nH]2)N(S(=O)(=O)c2ccccc2[N+](=O)[O-])C1 (stereo not drawn) = -0.0781

###

Assay name: MM1S myeloma cell viability, profiling panel, resazurin fluorescence, basal, 24 h, PK04 Diversity Set (AID 1174);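 further: MM1S multiple myeloma cell line; test concentration not given here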
Assay setup: called active from +8 up or from −8 down
Active and inactive are the calls of the source.
A correct response names exactly one class from active, inactive

compound="COc1cc2c(cc1O)C(c1ccc(CN3CCCC3)cc1)N(Cc1cccc(OC(F)(F)F)c1)CC2 (centres undefined)" assigned_label=active

Query string: // param item: CCCCN1CC=CC23O[C@@H]4C=CCOC(=O)[C@@H]4[C@H]2C(=O)N(C(CO)C(C)C)[C@@H]3C1=O (some centres undefined) ; yields the recorded call
Result string: inactive

Query string: // param item: CC(c1ccccc1)C(O)C1C=CC2C(=O)N(c3ccccc3)C(=O)C2N1Nc1ccc(C#N)cc1 (centres undefined) ; yields the recorded call
Result string: inactive

Query string: // param item: "NC(=O)NCC#Cc1ccc2c(c1)[C@]1(C(=O)N2)[C@H](C(=O)N2CCCCCCC2)[C@H]2C(=O)O[C@H](c3ccccc3)[C@H](c3ccccc3)N2[C@@H]1c1ccc(O)cc1" ; yields the recorded call
Result string: inactive

###

Test system: PRMT1 (protein arginine N-methyltransferase 1)
Assay name: PRMT1 binders on small-molecule microarrays, primary screen, biochemical, small-molecule microarray, 635 nm fluorescence (AID 1088);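 further: binding of Prmt1 protein to compounds spotted on small-molecule microarray slides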
Assay setup: small-molecule microarray binding, higher = more signal
Answer False if composite z-score is under 1, and True if it is 1 or more.

Example entries begin here.
compound=NCCCC[C@@H]1NC(=O)[C@H]2C[C@@H](C(=O)NCc3ccc(F)cc3)[C@@H](c3cccc(OCCO)c3)N2C1=O assigned_label=True
compound="CC(C)(C)N1CC=CC23O[C@@H]4/C=C\\CCCOC(=O)C4[C@H]2C(=O)N(CCCCCCO)[C@@H]3C1=O (stereo not given in full)" assigned_label=False
compound=COc1ccc(CC[C@H](O)c2cccc(OCC(=O)OC(C)(C)C)c2)cc1 assigned_label=True
compound=C#CCN([C@H](/C=C/C1CC1)[C@@H](O)Cc1ccccc1)[C@@H](Cc1ccccc1)C(=O)OC assigned_label=False
compound=COCCOC(=O)N1C(=O)[C@@]2(c3ccccc31)[C@H](c1ccc(OCCO)cc1)N1[C@H](c3ccccc3)[C@H](c3ccccc3)OC(=O)[C@H]1[C@@H]2C(=O)N1CCN(c2ncccn2)CC1 assigned_label=True
compound=C=CC[C@@]1(C(=O)N(C)C)N=C(c2ccc(OCCCO)cc2)O[C@@H]1c1ccccc1 assigned_label=False
compound="CCCCN1CC=CC23O[C@@H]4/C=C\\CCC(C)OC(=O)C4[C@H]2C(=O)N(C(C)CO)[C@@H]3C1=O (stereo not given in full)" assigned_label=False
compound=COCCOC(=O)N1C(=O)[C@@]2(c3cc(C#CCNC(N)=O)ccc31)[C@H](C(=O)NC[C@H](O)c1ccccc1)[C@H]1C(=O)O[C@H](c3ccccc3)[C@H](c3ccccc3)N1[C@@H]2c1ccc(OCCO)cc1 assigned_label=True

Query string: Given the entry "[N-]=[N+]=NCc1ccccc1[C@H]1OC(c2ccc(OCCCO)cc2)=N[C@@]1(Cc1ccccc1)C(=O)N1CCOCC1" , answer whether its composite z-score meets or surpasses 1.
Result string: True

Query string: Given the entry "C=CCN1C(=O)[C@]2(O[C@H](CCO)[C@@H]([Si](C)(C)c3ccc(OC)cc3)[C@@H]2C)c2ccccc21" , answer whether its composite z-score meets or surpasses 1.
Result string: False

Query string: Given the entry CCCCCCCCCCC(O)C1C=CC2C(=O)N(C)C(=O)C2N1N1CCCCC1 (stereo not given) , answer whether its composite z-score meets or surpasses 1.
Result string: False

Query string: Given the entry CC(C)C[C@@H]1NC(=O)C([C@@H](C)OCc2ccccc2)NC(=O)[C@@]23C(=O)N[C@@H](Cc4ccccc4)C2[C@H](C)[C@@]2(C)O[C@H]2C3/C=C/CC/C=C/CNC1=O (stereo not given in full) , answer whether its composite z-score meets or surpasses 1.
Result string: True

Query string: Given the entry "CC(C)C(=C=CC[C@@H](O)c1ccccc1OCCO)C[C@@H](O)c1cc(Cl)cc(Cl)c1O" , answer whether its composite z-score meets or surpasses 1.
Result string: True
